Assay: qHTS assay for measurement of the activity of small molecule inhibitors on Zika virus induced Caspase-3 activity in human astrocytoma cells (AID 1224859); also: potency is read from the fitted curve at half-maximal effect
Conditions: SNB-19 ZIKV-induced caspase-3/7, luminescence, 6 h; series mostly up to 45.7 µM
Activity calls are given as the source filed them. Calls follow the shape of the dose curve; as a rule, active = well fitted inhibition curve with a large enough effect; inconclusive = small, poorly fitted or top-dose-only effect; inactive = no such curve, though single readings can be large or run the other way.
Endpoint Name: Potency

O=C1NC(=O)C(c2ccccc2[N+](=O)[O-])=C1Nc1ccc(O)c(Cl)c1 ... inactive
NC(=NCc1ccccc1)NC(=O)c1nc(Cl)c(N)nc1N ... inactive
CCCCc1ccc2nc(NC(=O)OC)[nH]c2c1 ... inactive
CNC[C@H](O)c1ccc(O)c(O)c1 ... inactive
Cc1ccc(C)c(OCCCC(C)(C)C(=O)O)c1 ... inactive

Sample O=C(O)c1cccnc1Nc1cccc(C(F)(F)F)c1 — what was its Potency?
inactive

Lookup C[Se]CCC(N)C(=O)O (centres undefined)
inactive

Lookup O=C(NC(Cc1cc(=O)[nH]c2ccccc12)C(=O)O)c1ccc(Cl)cc1 (centres undefined)
inactive

Lookup CN(C)C(=O)COC(=O)Cc1ccc(OC(=O)c2ccc(N=C(N)N)cc2)cc1
inactive

Lookup CCCS(=O)c1ccc2nc(NC(=O)OC)[nH]c2c1 (centres undefined)
20.9 µM (active)

Lookup C=CCc1cc(OC)c(O)c(C(=O)NCCO)c1
inactive

----------
Experiment: Cell Viability - LYMP1-002 - Assay at 24 hr (AID 993)
Conditions: LYMP1-002 lymphoblastoid cells viability; series mostly up to 92.2 µM
From the text: NIH Chemical Genomics Center [NCGC] NIH Molecular Libraries Screening Centers Network [MLSCN] National Institutes of Environmental Health Sciences [NIEHS] National Toxicology Program [NTP] We have developed a 1536-well cell-based assay for quantitative high throughput screening (qHTS) against a number of cell lines to determine in vitro cytotoxicity of small molecules. […] 8. Detection; Luminescence; Viewlux plate reader […]
The source made the active and inactive calls. The call rests on the fitted dose curve; in most records, active means well fitted cell-killing curve with a large enough effect; inconclusive means small, poorly fitted or top-dose-only effect; inactive means flat fitted curve, though single readings scatter. Peptide text beside a SMILES is read from it.
Response enum: true for active, false for inactive

CN(C)c1ccc2nc3ccc(=[N+](C)C)cc-3sc2c1 ... true
COC(=O)[C@H](Cc1ccccc1)NC(=O)[C@@H](N)CC(=O)O (H-Asp-Phe-OMe) ... false
Cc1ccc(C)c(OCCCC(C)(C)C(=O)O)c1 ... false
CCCc1cc(=O)[nH]c(=S)[nH]1 ... false

Recorded test call requested for CCc1nc(N)nc(N)c1-c1ccc(Cl)cc1
false

Lookup Nc1ccc(S(N)(=O)=O)cc1
false

Lookup Cc1cc(O)c2c(c1)C(=O)c1cc(O)cc(O)c1C2=O
false

Lookup COc1c2occc2cc2ccc(=O)oc12
false

----------
Target: Chromobox protein homolog 1 (Homo sapiens) (UniProt P83916)
Sequence (P83916 whole entry, looked up): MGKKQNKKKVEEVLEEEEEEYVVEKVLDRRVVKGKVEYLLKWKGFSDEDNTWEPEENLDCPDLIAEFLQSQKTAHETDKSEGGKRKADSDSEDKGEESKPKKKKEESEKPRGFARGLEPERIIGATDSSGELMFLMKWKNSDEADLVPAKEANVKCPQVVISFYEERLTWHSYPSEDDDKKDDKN
Test: qHTS Validation Assay for Inhibitors of HP1-beta Chromodomain Interactions with Methylated Histone Tails (AID 488953); also: nearly all actives have a fitted effect of over 50% in size
Details: HP1-beta chromodomain / methylated histone peptide binding assay; series mostly up to 114 µM
Inconclusive results are not listed. Calls of active or inactive are those of the source. Calls come from the whole dose curve; as a rule, active = well fitted inhibition curve with a large enough effect; inconclusive = small, poorly fitted or top-dose-only effect; inactive = no such curve, though single readings can be large or run the other way.
Response enum: 1 for active, 0 for inactive

C[C@@H](N)C1CCC(C(=O)Nc2ccncc2)CC1 (stereo partly drawn) ... 0
NCCCCNCCCN ... 0
CC1(C)NC(=O)N(c2ccc([N+](=O)[O-])c(C(F)(F)F)c2)C1=O ... 0
CNC[C@H](O)c1ccc(O)c(O)c1 ... 0
O=Nc1c(-c2c(O)[nH]c3cc(Br)ccc23)[nH]c2ccccc12 ... 1

Recorded test call requested for Oc1ccc2ccccc2c1SSc1c(O)ccc2ccccc12
1

Lookup CCOC(=O)C(C)Oc1cccc2c(=O)n(CC(=O)Nc3ccc4c(c3)OCCO4)ccc12 (stereo not drawn)
0
